assay.info: Cmax in fasting healthy human at 200 mg, po administered as single dose
Assay type: ADME, organism-based
Set-up: dose 200 mg, route oral
recorded.conditions: in vivo
property: Cmax

[[record]]
compound = "NCCCCN(Cc1nc2ccccc2[nH]1)[C@H]1CCCc2cccnc21"
property = "Cmax"
measured = "995 ng/mL"


====

assay.info: Terminal half life in dog
Assay type: ADME, organism-based, Canis lupus familiaris
recorded.conditions: in vivo
property: half-life

[[record]]
compound = "NCCCCN(Cc1nc2ccccc2[nH]1)[C@H]1CCCc2cccnc21"
measured = "10 h"


====

assay.info: Drug level in fasting healthy human at 50 mg, po administered as single dose after 12 hrs
Type: ADME, organism-based
recorded.conditions: in vivo, read-out: Drug uptake
property: concentration at 12 h (ng/mL)

[[record]]
compound = "NCCCCN(Cc1nc2ccccc2[nH]1)[C@H]1CCCc2cccnc21"
measured = 1.5

